Answer each item with its documented IC50.
- Study system: NRAS G12C (Homo sapiens (Human), UniProt P01111+P62937, G12C)
- Sequence (P01111 whole entry G12C): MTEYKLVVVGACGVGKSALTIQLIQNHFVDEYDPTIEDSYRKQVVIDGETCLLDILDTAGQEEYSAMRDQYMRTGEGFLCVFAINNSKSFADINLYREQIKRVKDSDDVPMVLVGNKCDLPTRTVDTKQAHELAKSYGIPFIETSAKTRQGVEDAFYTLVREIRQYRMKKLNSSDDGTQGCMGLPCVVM
- Sequence (P62937 whole entry): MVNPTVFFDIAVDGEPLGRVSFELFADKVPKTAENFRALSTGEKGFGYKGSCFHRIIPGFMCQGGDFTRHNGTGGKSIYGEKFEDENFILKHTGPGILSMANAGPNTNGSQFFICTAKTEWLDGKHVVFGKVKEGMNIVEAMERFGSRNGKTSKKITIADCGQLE
- Method summary: Ras-Raf (BRAF RBD) disruption / FRET / MOA assay, NRAS G12C
- Format: biochemical
- Measurement setup: read-out: IC50* NRAS G12C FRET data

Sample C=CC(=O)N1CC[C@H](C(=O)N(C)[C@H](C(=O)N[C@H]2CC3=NN=C(S3)c3ccc4c(c3)c(c(-c3cccnc3COC)n4CC)CC(C)(C)COC(=O)[C@@H]3CCCN(N3)C2=O)C(C)C)C1 [Example A236] — what was its IC50?
> 10000 nM

Sample CCn1c(-c2cccnc2[C@H](C)OC)c2c3cc(ccc31)-c1csc(n1)C[C@H](NC(=O)[C@H](C(C)C)N(C)C(=O)N1CCC13CN(C(=O)/C=C/CN(C)C)C3)C(=O)N1CCC[C@H](N1)C(=O)OCC(C)(C)C2 (atropisomer, axis not shown) [Example A598] — what was its IC50?
10 to 100 nM

Sample CCn1c(-c2cccnc2[C@H](C)OC)c2c3cc(ccc31)N1CCO[C@@H](C[C@H](NC(=O)[C@H](C(C)C)N3CC[C@@]4(CCN(C(=O)C#CC(C)(C)N(C)C)C4)C3=O)C(=O)N3CCC[C@H](N3)C(=O)OCC(C)(C)C2)C1 (atropisomer, axis not shown) [Example A614] — what was its IC50?
10 to 100 nM

Sample CCn1c(-c2cccnc2[C@H](C)OC)c2c3cc(ccc31)-c1cccc(c1)C[C@H](NC(=O)[C@H](C(C)C)N1CO[C@@]3(CCN(C(=O)/C=C/CN(C)C)C3)C1=O)C(=O)N1CCC[C@H](N1)C(=O)OCC(C)(C)C2 (atropisomer, axis not shown) [Example A558] — what was its IC50?
10 to 100 nM

Sample C=CC(=O)N1CC(O[C@H](C(=O)N[C@H]2Cc3cc(O)cc(c3)-c3ccc4c(c3)c(c(-c3cccnc3COC)n4CC)CC(C)(C)COC(=O)[C@@H]3CCCN(N3)C2=O)C(C)C)C1 [Example A235] — what was its IC50?
1000 to 10000 nM

Sample CCn1c(-c2cccnc2[C@H](C)OC)c2c3cc(ccc31)-c1cc(O)cc(c1)C[C@H](NC(=O)[C@H](C(C)C)N(C)C(=O)[C@H]1CCN(C(=O)C#CCOC)C1)C(=O)N1CCC[C@H](N1)C(=O)OCC(C)(C)C2 [Example A266] — what was its IC50?
< 10 nM

Sample CCn1c(-c2cccnc2[C@H](C)OC)c2c3cc(ccc31)-c1cc(O)cc(c1)C[C@H](NC(=O)[C@H](C(C)C)N(C)C(=O)c1ccc(NC(=O)/C=C/CN(C)C)nc1)C(=O)N1CCC[C@H](N1)C(=O)OCC(C)(C)C2 (atropisomer, axis not shown) [Example A249] — what was its IC50?
100 to 1000 nM

Sample C=CC(=O)N1CC[C@H](C(=O)N(C)[C@H](C(=O)N[C@H]2Cc3coc(n3)-c3ccc4c(c3)c(c(-c3cccnc3[C@H](C)OC)n4CC)CC(C)(C)COC(=O)[C@@H]3CCCN(N3)C2=O)C(C)C)C1 (atropisomer, axis not shown) [Example A468] — what was its IC50?
100 to 1000 nM

----------
- Study system: KRAS WT (Homo sapiens (Human), UniProt P01116+P62937)
- Sequence (P01116-2 other isoform, or with tags, fused parts or gaps, one chain of several): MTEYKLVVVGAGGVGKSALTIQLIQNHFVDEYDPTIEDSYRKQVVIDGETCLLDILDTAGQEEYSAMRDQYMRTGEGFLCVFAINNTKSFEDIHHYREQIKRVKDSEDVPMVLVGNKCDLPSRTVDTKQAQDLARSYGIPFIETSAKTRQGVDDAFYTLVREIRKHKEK
- Method summary: Ras-Raf (BRAF RBD) disruption / FRET / MOA assay, KRAS WT
- Assay type: biochemical
- Measurement setup: read-out: IC50* KRAS WT FRET data
pIC50: −log10 of the molar value.
Answer each item with its documented pIC50.

Enter reported pIC50 observed with KRAS WT (Homo sapiens (Human), UniProt P01116+P62937) for CCn1c(-c2cnccc2COC)c2c3cc(ccc31)-c1ccnc(c1)C[C@H](NC(=O)[C@H](C(C)C)N(C)C(=O)[C@H]1CCN(C(=O)C#CCN(C)C)C1)C(=O)N1CCC[C@H](N1)C(=O)OCC(C)(C)C2 [Example A130]
< 5.00

Enter reported pIC50 observed with KRAS WT (Homo sapiens (Human), UniProt P01116+P62937) for C=CC(=O)N1CC[C@H](C(=O)N(C)[C@H](C(=O)N[C@H]2Cc3cc(sn3)-c3ccc4c(c3)c(c(-c3cccnc3[C@H](C)OC)n4CC)CC(C)(C)COC(=O)[C@@H]3CCCN(N3)C2=O)C(C)C)C1 (atropisomer, axis not shown) [Example A340]
5.00 to 6.00

Enter reported pIC50 observed with KRAS WT (Homo sapiens (Human), UniProt P01116+P62937) for C=CC(=O)N1CC2(COCCN2C(=O)N(C)[C@H](C(=O)N[C@H]2Cc3nc(cs3)-c3ccc4c(c3)c(c(-c3cccnc3[C@H](C)OC)n4CC)CC(C)(C)COC(=O)[C@@H]3CCCN(N3)C2=O)C(C)C)C1 (atropisomer, axis not shown) [Example A352]
5.00 to 6.00

Enter reported pIC50 observed with KRAS WT (Homo sapiens (Human), UniProt P01116+P62937) for CCn1c(-c2cccnc2[C@H](C)OC)c2c3cc(ccc31)-c1cccc(c1)C[C@H](NC(=O)[C@H](C(C)C)N1CC[C@]3(CCN(C(=O)C#CC(C)(C)N(C)C)C3)C1=O)C(=O)N1CCC[C@H](N1)C(=O)OCC(C)(C)C2 (atropisomer, axis not shown) [Example A534]
5.00 to 6.00

----------
Answer each item with its documented pIC50.
- Study system: KRAS G12S (Homo sapiens (Human), UniProt P01116+P62937, G12S)
- Sequence (P01116-2 other isoform, or with tags, fused parts or gaps G12S): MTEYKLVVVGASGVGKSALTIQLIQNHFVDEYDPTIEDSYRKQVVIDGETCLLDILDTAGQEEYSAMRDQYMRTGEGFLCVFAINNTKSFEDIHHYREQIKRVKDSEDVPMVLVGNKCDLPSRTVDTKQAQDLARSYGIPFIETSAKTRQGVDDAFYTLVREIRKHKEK
- Sequence (P62937 whole entry): as the sequence (P62937 whole entry) above
- Method summary: Ras-Raf (BRAF RBD) disruption / FRET / MOA assay, KRAS G12S
- Type: biochemical
- Measurement setup: Ras-Raf disruption/FRET/MOA assay; class symbols; read-out: KRAS G12S FRET data IC50
- Procedure: The purpose of this biochemical assay is to measure the ability of test compounds to facilitate ternary complex formation between a nucleotide-loaded Ras isoform and cyclophilin A; the resulting ternary complex disrupts binding to a BRAF^RBD construct, inhibiting Ras signaling through a RAF effector. Compound is present in plate wells as a 10-point 3-fold dilution series starting at a final concentration of 30 μM. […]
pIC50: −log10 of the molar value.

Sample C=CC(=O)N1CCC2(CCN(C(=O)N(C)[C@H](C(=O)N[C@H]3Cc4cccc(c4)-c4ccc5c(c4)c(c(-c4cccnc4[C@H](C)OC)n5CC)CC(C)(C)COC(=O)[C@@H]4CCCN(N4)C3=O)C(C)C)CC2)C1 (atropisomer, axis not shown) — what was its pIC50?
6.00 to 7.00

Sample CCn1c(-c2cccnc2[C@H](C)OC)c2c3cc(ccc31)-c1nc(cs1)C[C@H](NC(=O)[C@H](C(C)C)N(C)C(=O)[C@H]1CCN(C(=O)C#CC(C)(C)N3CCC3)C1)C(=O)N1CCC[C@H](N1)C(=O)OCC(C)(C)C2 (atropisomer, axis not shown) — what was its pIC50?
5.00 to 6.00

Sample C#CC(=O)N1CC[C@H](C(=O)N(C)[C@H](C(=O)N[C@H]2Cc3cc(O)cc(c3)-c3ccc4c(c3)c(c(-c3cnccc3[C@H](C)OC)n4CC)CC(C)(C)COC(=O)[C@@H]3CCCN(N3)C2=O)C(C)C)C1 — what was its pIC50?
6.00 to 7.00

Sample CCn1c(-c2ccccc2CCOC)c2c3cc(ccc31)-c1cc(O)cc(c1)C[C@H](NC(=O)[C@H](C(C)C)N(C)C(=O)c1ccc(NC(=O)/C=C/CN(C)C)cn1)C(=O)N1CCC[C@H](N1)C(=O)OCC(C)(C)C2 — what was its pIC50?
< 5.00

Sample CO[C@@H](C)c1ncccc1-c1c2c3cc(ccc3n1CC(F)(F)F)-c1cccc(c1)C[C@H](NC(=O)[C@@H](COC1CN(C(=O)C#CC3(C)OCCO3)C1)C(C)C)C(=O)N1CCC[C@H](N1)C(=O)OCC(C)(C)C2 (atropisomer, axis not shown) — what was its pIC50?
< 5.00

Sample CCn1c(-c2cccnc2[C@H](C)OC)c2c3cc(ccc31)-c1csc(n1)C[C@H](NC(=O)[C@H](C(C)C)N(C)C(=O)N(C)C1CN(C(=O)/C=C/C3CN(C)C3)C1)C(=O)N1CCC[C@H](N1)C(=O)OCC(C)(C)C2 (atropisomer, axis not shown) — what was its pIC50?
6.00 to 7.00

Sample C=CC(=O)N(C)C1CN(C(=O)N(C)[C@H](C(=O)N[C@H]2Cc3nc(cs3)-c3ccc4c(c3)c(c(-c3cccnc3[C@H](C)OC)n4CC)CC(C)(C)COC(=O)[C@@H]3CCCN(N3)C2=O)C(C)C)C1 (atropisomer, axis not shown) — what was its pIC50?
6.00 to 7.00

Sample C=CC(=O)N1CCN(C(=O)N(C)[C@H](C(=O)N[C@H]2Cc3nc(cs3)-c3ccc4c(c3)c(c(-c3cccnc3[C@H](C)OC)n4CC(F)(F)F)CC(C)(C)COC(=O)[C@@H]3CCCN(N3)C2=O)C(C)C)CC1 (atropisomer, axis not shown) — what was its pIC50?
7.00 to 8.00
